Data provenance is patent US20200079833A1.

biological target: glucagon receptor (GCGR) (human, UniProt P47871 26-477); experiment: cell-based or functional assay
Sequence (P47871 26-477): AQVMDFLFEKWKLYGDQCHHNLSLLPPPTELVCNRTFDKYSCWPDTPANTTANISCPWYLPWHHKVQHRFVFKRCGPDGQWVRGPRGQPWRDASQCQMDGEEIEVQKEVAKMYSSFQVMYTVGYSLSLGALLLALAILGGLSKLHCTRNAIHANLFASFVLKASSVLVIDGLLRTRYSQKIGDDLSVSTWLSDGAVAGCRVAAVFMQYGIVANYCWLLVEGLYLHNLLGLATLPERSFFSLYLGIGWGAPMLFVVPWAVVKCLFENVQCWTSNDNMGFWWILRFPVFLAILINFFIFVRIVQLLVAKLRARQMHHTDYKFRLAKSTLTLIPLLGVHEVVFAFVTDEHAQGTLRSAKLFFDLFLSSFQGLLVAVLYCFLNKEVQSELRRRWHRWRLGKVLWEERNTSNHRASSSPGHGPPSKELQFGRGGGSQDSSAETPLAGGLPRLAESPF
Starred links: 1 amine or outer side, 2 acyl side, 3 side chain; linkers in the order of their positions; H or OH if unused. Non-standard residues stand in square brackets, D forms with d. Groups on a side chain read outwards from the residue. Primed or numbered codes have the meaning given here. No end group written: not given here. *: point of attachment. γGlu = O=C(O)[C@H](CCC(=O)[*:2])N[*:1]; Stearoyl = CCCCCCCCCCCCCCCCCC(=O)*; Palmitoyl = CCCCCCCCCCCCCCCC(=O)*; αMeF = C[C@](N)(Cc1ccccc1)C(=O)O; αMeK = C[C@](N)(CCCCN)C(=O)O; αMeS = C[C@](N)(CO)C(=O)O; PEG2′ = not defined here; Aib = CC(C)(N)C(=O)O
Quick reference: cAMP Primary assay EC50 Gluc-R (2nd) of the listed items.
Lab book: enter the figure in nM, no units written.

>>> print(df.to_string())
                                     binder                       measured_metric  readout_value
0  H[Aib]EGS[αMeF]TSDV[αMeS]S[αMeF]LEGEK([PEG2′-PEG2′-γGlu-Stearoyl])A[αMeK]E[αMeF]IA[αMeF]VV[αMeK]GG-NH2 [SEQ ID NO 111]  cAMP Primary assay EC50 Gluc-R (2nd)             25

Proceed to the following item.
Q: Please report the measured cAMP Primary assay EC50 Gluc-R (2nd) for HK([γGlu-Palmitoyl])EGS[αMeF]TSDV[αMeS]S[αMeF]LEGEAA[αMeK]E[αMeF]IA[αMeF]VV[αMeK]GG-NH2 [SEQ ID NO 98]
Result: 28
